assay: DMPK study in cynomolgus monkey; assay type: in vivo; conditions: male cynomolgus monkey, oral 3 mg/kg, plasma
property label: Cmax
State the value with its unit after it.

{"molecule smiles": "N#Cc1ccc(COc2cccc(C3=CCN(Cc4nc5sc(C(=O)O)cc5n4C[C@@H]4CCO4)CC3)n2)c(F)c1", "endpoint value": "28.3 nM"}

Which Cmax value is on record for `O=C(O)c1cc2c(nc(CN3CC=C(c4cccc(OCc5ccc(Cl)cc5F)n4)CC3)n2C[C@@H]2CCO2)s1` ?
245 nM
